Provenance of the data: patent US9556229B2

Test system: HCT116 colorectal cancer cells
pEC50: −log10 of the molar value. Starred links: 1 amine or outer side, 2 acyl side, 3 side chain; linkers in the order of their positions; H or OH if unused. Positions of bridges follow the written chain, without caps; N, C: chain ends. Residues, ends and D or L forms follow the SMILES beside them. mXylylene = c1cc(C[*:1])cc(C[*:2])c1

Molecule: CC(C)C[C@H](NC(=O)[C@H](CCCNC(=N)N)NC(=O)[C@@H]1CSCc2cccc(c2)CSC[C@H](NC(=O)[C@H](Cc2ccccc2)NC(=O)[C@@H](N)CCCNC(=N)N)C(=O)N[C@@H](CCCNC(=N)N)C(=O)N[C@@H](Cc2ccc(O)cc2)C(=O)N[C@@H](Cc2c[nH]c3ccccc23)C(=O)N1)C(=O)N[C@@H](CCCNC(=N)N)C(=O)N1CCC[C@H]1C(N)=O [ArB15Gm] (H-RFCRYWCRLRP-NH2; linker 3-7 via mXylylene; N-terminus assumed)
pEC50: 4.28

###

Please consider the recorded EC50 for MDA-MB-231 breast cancer cell line in what follows.
Starred links: 1 amine or outer side, 2 acyl side, 3 side chain; linkers in the order of their positions; H or OH if unused. Non-standard residues stand in square brackets, D forms with d. Residues, ends and D or L forms follow the SMILES beside them. Pro(4R-Bn) = O=C(O)[C@@H]1C[C@@H](Cc2ccccc2)CN1; 2Nal = N[C@@H](Cc1ccc2ccccc2c1)C(=O)O; NMePhg = CN[C@H](C(=O)O)c1ccccc1; Cysteamide = C(CS[*:3])N[*:1]; Tle = CC(C)(C)[C@H](N)C(=O)O; NMeA = CN[C@@H](C)C(=O)O

Molecule: CN[C@@H](C)C(=O)N[C@H](C(=O)N1C[C@H](Cc2ccccc2)C[C@H]1C(=O)N[C@@H](Cc1ccc2ccccc2c1)C(=O)NCCS)C(C)(C)C [SMAC15, N^MeAla-Tle-(4-Bzl)Pro-^2Nal-NHCH2CH2SH] (H-[NMeA][Tle][Pro(4R-Bn)][2Nal]-Cysteamide; N-terminus assumed)
Target: MDA-MB-231 breast cancer cell line
EC50: 9.4 µM
//
Molecule: CN[C@@H](C)C(=O)N[C@H](C(=O)N1C[C@H](Cc2ccccc2)C[C@H]1C(=O)N(C)[C@H](C(=O)NCCS)c1ccccc1)C(C)(C)C [SMAC2] (H-[NMeA][Tle][Pro(4R-Bn)][NMePhg]-Cysteamide; N-terminus assumed)
Target: MDA-MB-231 breast cancer cell line
EC50: 23.8 µM
